# Tested on: Stellaria media (STEME)
# experiment.description: Herbicidal pre-emergence action, 1280 g/ha (Table A9)
# Assay type: in vivo
# cond: visual grading after ca. 3 weeks vs untreated controls
experimental.readout: herbicidal effect STEME (%)
Answer in %, number only, no unit symbol.

- smiles.structure: "Cc1nn(C)c(=O)c(Oc2cc(F)cc(F)c2Br)c1OC(=O)C(C)C"
  herbicidal effect STEME / %: 90

Return herbicidal effect STEME measured with Stellaria media (STEME) given this compound: "Cc1nn(C)c(=O)c(Oc2ccccc2C2CC2)c1O"
100

Return herbicidal effect STEME measured with Stellaria media (STEME) given this compound: "CC(=O)Oc1c(C)nn(C)c(=O)c1Oc1ccccc1OC(F)(F)F"
100
